# assay target: MRGPRX4 (Homo sapiens, UniProt Q96LA9)
# Sequence (Q96LA9 whole entry): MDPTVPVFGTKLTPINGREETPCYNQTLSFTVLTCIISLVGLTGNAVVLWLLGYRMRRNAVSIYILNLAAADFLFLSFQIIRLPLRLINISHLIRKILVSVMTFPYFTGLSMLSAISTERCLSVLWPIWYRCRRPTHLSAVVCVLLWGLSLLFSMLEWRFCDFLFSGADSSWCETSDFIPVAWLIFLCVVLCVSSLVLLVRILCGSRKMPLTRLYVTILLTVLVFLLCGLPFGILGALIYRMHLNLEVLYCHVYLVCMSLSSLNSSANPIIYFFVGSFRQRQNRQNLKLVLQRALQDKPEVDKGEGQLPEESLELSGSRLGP
# assay explanation: Cell membrane chromatography, MRGPRX4/CMC column
# Type: binding
# Parameters: expressed in transfected cells; whole cells or crude membrane fraction
# condition description: regression 1/[LR]s versus 1/[L]m; n=5; read-out: KD (MRGPRX4/CMC breakthrough curves)
quantity: Kd (nM)
Report the figure in nM without appending any unit label.

Memo: Nc1nnc(-c2cccc(Cl)c2Cl)c(N)n1 [LTG, Lamotrigine] , reported Kd: 417

----------
# assay target: UniProt:Q96LA9
# assay explanation: Ca2+ imaging / EC50 determination in HEK293 cells expressing MRGPRX4
# Assay type: cell-based
# Set-up: expressed in transfected cells
# condition description: HEK293 cells, Ca2+ assay
quantity: EC50

Record `Nc1nnc(-c2cccc(Cl)c2Cl)c(N)n1` , field EC50: ~200 µM

----------
# assay target: MrgprA1 (Mus musculus)
# Construct: whole cells or crude membrane fraction
# Sequence (Q91WW5 whole entry): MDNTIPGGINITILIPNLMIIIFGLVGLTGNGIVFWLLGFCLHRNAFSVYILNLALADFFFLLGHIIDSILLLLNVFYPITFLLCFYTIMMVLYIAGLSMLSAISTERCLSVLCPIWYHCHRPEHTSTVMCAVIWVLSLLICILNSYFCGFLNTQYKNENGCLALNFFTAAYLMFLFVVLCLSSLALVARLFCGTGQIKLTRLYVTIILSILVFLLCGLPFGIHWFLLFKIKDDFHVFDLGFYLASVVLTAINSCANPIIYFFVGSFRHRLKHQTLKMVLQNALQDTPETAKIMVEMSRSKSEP
# assay explanation: Microscale thermophoresis binding assay, MRGPRA1
quantity: pKd
Scale for pKd: -log10 of concentration given in mol/L; no unit attached.

// recorded pKd for `C=CC1=C(C)/C(=C/c2[nH]c(Cc3[nH]c(/C=C4\NC(=O)C(C)=C4C=C)c(C)c3CCC(=O)O)c(CCC(=O)O)c2C)NC1=O` : 4.03

----------
# assay target: MRGPRX4 (Homo sapiens)
# assay explanation: Fura 2-AM calcium imaging, EC50 determinations, MRGPRX4 HEK293 cells
# Format: cell-based
# Design: expressed in transfected cells; whole cells or crude membrane fraction
# condition description: HEK293 cells, Fura 2-AM; interval [44, 87]; read-out: EC50 calcium response MRGPRX4
quantity: pEC50
Friendly reminder that pEC50 comes from taking -log10 of the concentration in mol/L.

Measured pEC50 for this entry `C=CC1=C(C)/C(=C/c2[nH]c(Cc3[nH]c(/C=C4\NC(=O)C(C)=C4C=C)c(C)c3CCC(=O)O)c(CCC(=O)O)c2C)NC1=O` on MRGPRX4 (Homo sapiens): 4.21

----------
# assay target: MRGPRX4 (Homo sapiens)
# assay explanation: Microscale thermophoresis binding assay, MRGPRX4
# Design: expressed in transfected cells; whole cells or crude membrane fraction
quantity: pKd
Reminder that pKd is minus the log10 of a molar concentration.

Note to self: pKd of `C=CC1=C(C)/C(=C/c2[nH]c(Cc3[nH]c(/C=C4\NC(=O)C(C)=C4C=C)c(C)c3CCC(=O)O)c(CCC(=O)O)c2C)NC1=O` with MRGPRX4 (Homo sapiens) was 4.26
